- Tested on: human PBM cells
- TEST: Cytotoxicity assay in PBM cells
- Format: cell-based
- CONDITION CONTEXT: Table 2, read-out: Cytotoxicity in different cells (IC50, μM) PBM
MEASURED METRIC: IC50 (µM)
A number alone suffices; assume µM.

Data request, read-out IC50, for O=C(Nc1nc(=O)n([C@H]2C=C[C@@H](CO)O2)cc1F)c1cccs1
10.2

Data request, read-out IC50, for COc1ccccc1C(=O)Nc1nc(=O)n([C@H]2C=C[C@@H](CO)O2)cc1F
13.1

Data request, read-out IC50, for CC(C)(C)c1ccc(C(=O)Nc2nc(=O)n([C@H]3C=C[C@@H](CO)O3)cc2F)cc1
5

Data request, read-out IC50, for Cc1ccccc1C(=O)Nc1nc(=O)n([C@H]2C=C[C@@H](CO)O2)cc1F
58.4

Data request, read-out IC50, for O=C(Nc1nc(=O)n([C@H]2C=C[C@@H](CO)O2)cc1F)c1cccc(Cl)c1
45.3

Data request, read-out IC50, for O=C(Nc1nc(=O)n([C@H]2C=C[C@@H](CO)O2)cc1F)c1cccc(Br)c1
51.6

Data request, read-out IC50, for COc1cccc(C(=O)Nc2nc(=O)n([C@H]3C=C[C@@H](CO)O3)cc2F)c1
18.5

Data request, read-out IC50, for O=C(Nc1nc(=O)n([C@H]2C=C[C@@H](CO)O2)cc1F)c1ccccc1[N+](=O)[O-]
80

Data request, read-out IC50, for CCCC(=O)Nc1nc(=O)n([C@H]2C=C[C@@H](CO)O2)cc1F
52.4

Data request, read-out IC50, for O=C(Nc1nc(=O)n([C@H]2C=C[C@@H](CO)O2)cc1F)c1cccnc1
13.8

Data request, read-out IC50, for CCc1ccc(C(=O)Nc2nc(=O)n([C@H]3C=C[C@@H](CO)O3)cc2F)cc1
13

Data request, read-out IC50, for O=C(Nc1nc(=O)n([C@H]2C=C[C@@H](CO)O2)cc1F)c1cccc(F)c1
45.3

Data request, read-out IC50, for O=C(Nc1nc(=O)n([C@H]2C=C[C@@H](CO)O2)cc1F)c1cc2ccccc2s1
2.2

Data request, read-out IC50, for CCCCc1ccc(C(=O)Nc2nc(=O)n([C@H]3C=C[C@@H](CO)O3)cc2F)cc1
7.3

Data request, read-out IC50, for O=C(Nc1nc(=O)n([C@H]2C=C[C@@H](CO)O2)cc1F)c1ccc([N+](=O)[O-])cc1
3.4
